Just for reference, PubChem BioAssay (NCI) is where these values come from.

assay: NCI Yeast Anticancer Drug Screen. Data for the bub3 strain (AID 167); settings: S. cerevisiae bub3 mutant strain, at 50.0 µM (retest, dose inferred, filed as 5.0)
About 79,000 compounds went through this panel and 15% of them were active in at least one assay; those are over-represented in the sample as a whole. Active and inactive are the calls of the source. Rule as the data show it: active = growth inhibition above about 70%; inactive = the rest.
Permitted responses: TRUE (active), FALSE (inactive)

Status in this test for O=C(c1ccc([N+](=O)[O-])cc1)C1N=NCC1c1ccccc1 (configuration not stated) ?
FALSE

Consider next the compound O=C1C=C(c2ccccc2)OC1(c1ccccc1)N1CCOCC1 (configuration not stated) in the same way.
FALSE

Consider next the compound `O=P(NC1CCCCC1)(OCc1ccccc1)OCc1ccccc1` in the same way.
FALSE

Consider next the compound COC(=O)C1(C)CCc2c(ccc3ccccc23)C1=O (configuration not stated) in the same way.
TRUE

Consider next the compound `O=C1C(Br)=C(c2ccccc2)O/C1=C/C(=O)c1ccc(Br)cc1` in the same way.
FALSE

Consider next the compound `N#CC(C#N)=NNc1ccc(S(=O)(=O)O)cc1` in the same way.
FALSE

Consider next the compound `O=C1c2ccccc2C(=O)c2cc(CCl)ccc21` in the same way.
FALSE

Consider next the compound `Oc1[nH]c2ccccc2c1N=NC(=S)N1CCCCC1` in the same way.
TRUE

Consider next the compound CCOC1Oc2ccccc2-c2nc(N)ncc21 (configuration not stated) in the same way.
FALSE

Consider next the compound `c1ccc2[nH]c(-c3cscn3)nc2c1` in the same way.
FALSE

Consider next the compound `O=[N+]([O-])c1cccc2nc3ccccc3c(NCCCn3ccnc3[N+](=O)[O-])c12` in the same way.
TRUE

Consider next the compound `O=c1nc2n(Cc3ccccc3)c3ccccc3nc-2c(=O)[nH]1` in the same way.
FALSE

* * *

assay: NCI Yeast Anticancer Drug Screen. Data for the bub3 strain (AID 167); conditions: S. cerevisiae bub3 mutant strain, at 33.0 µM
This is part of a sample that, as a whole, favours compounds with a hit. Of some 79,000 tested, about 15% had one in any assay. Calls of active or inactive are those of the source. Rule as the data show it: active = growth inhibition above about 70%; inactive = the rest.
Permitted responses: active, inactive

Status in this test for `N#CC(=Nc1ccccc1F)Nc1ccccc1F` ?
inactive

Consider next the molecule CCCCCCN(CCCCCC)CC(O)c1ccnc2ccc(OC)cc12 (centres undefined) in the same way.
inactive

Consider next the molecule `O=[N+]([O-])c1cc(Cl)cnc1Br` in the same way.
inactive

Consider next the molecule `COc1ccc([N+](=O)[O-])c2c(NCCCN(C)C)c3ccccc3nc12` in the same way.
inactive

Consider next the molecule C#CCN(Cc1ccc2nc(N)[nH]c(=O)c2c1)c1ccc(C(=O)NC(CCC(=O)O)C(=O)O)cc1 (centres undefined) in the same way.
inactive

Consider next the molecule `Cc1cccc(/C=N/NC(=S)N2CCCC2)n1` in the same way.
active

Consider next the molecule `Cc1ccc(NCCNCCO)c2c(=O)c3cc(O)ccc3sc12` in the same way.
inactive

Consider next the molecule `CCCCCOC(=S)SC(=O)OCC` in the same way.
active

Consider next the molecule Nc1nc2ccc(NCc3ccc(C(=O)NC(CCC(=O)O)C(=O)O)cc3)cc2c(=O)[nH]1 (centres undefined) in the same way.
inactive

Consider next the molecule `CCOc1ccc(NC(=O)C2=C(C)NC(C)=C(C(=O)Nc3ccc(OCC)cc3)C2c2cccc([N+](=O)[O-])c2)cc1` in the same way.
inactive

Consider next the molecule `O=P(NC1CCCCC1)(OCc1ccccc1)OCc1ccccc1` in the same way.
inactive

Consider next the molecule OC1(c2ccccc2)CCCc2ccc(Cl)cc21 (centres undefined) in the same way.
inactive

Consider next the molecule `CC1=C(SCc2ccccc2)C(=O)c2ccccc2C1=O` in the same way.
active

Consider next the molecule COC(C(O)CO)C(O)C(O)C(=O)NNc1ccccc1 (centres undefined) in the same way.
inactive

Consider next the molecule O=C1OC(C2=CC(=O)c3ccccc3C2=O)C(Cl)=C1Cl (centres undefined) in the same way.
inactive

Consider next the molecule `C=C(C(=C)n1nnc(C(=O)OC)c1C(=O)OC)n1nnc(C(=O)OC)c1C(=O)OC` in the same way.
inactive

Consider next the molecule `CCN(CC)CCN(C)CCc1ccc(Br)cc1` in the same way.
inactive

Consider next the molecule `CC(C)(C)c1ccc(NS(=O)(=O)c2ccc(N)cc2)cc1` in the same way.
inactive

Consider next the molecule `CC(/C=C/c1ccccc1)=N\NC(N)=S` in the same way.
inactive

Consider next the molecule `O=c1[nH]c(-c2ccccc2)nc2c1sc1nc3ccccc3n12` in the same way.
inactive

Consider next the molecule `Cc1c(C(C)C)cc(OCCO)cc1C(C)C` in the same way.
inactive

Consider next the molecule `CCOC(=O)/C(=C\c1ccc(C#N)cc1)C(C)=O` in the same way.
active

Consider next the molecule `O=[N+]([O-])/C=C/c1cc(Cl)c(/C=C/[N+](=O)[O-])cc1Cl` in the same way.
active

Consider next the molecule `NC(=S)NC(=S)Nc1ccccc1` in the same way.
inactive

* * *

experiment: NCI Yeast Anticancer Drug Screen. Data for the rad18 strain (AID 177); conditions: S. cerevisiae rad18 mutant growth inhibition; at 33.0 µM; hits give high values
The panel holds about 79,000 compounds, 15% with a hit somewhere; the sample as a whole holds those more often.
I'd be grateful if you could share measured growth inhibition for these entries.
Hi! Could you send only the number? It should be in %, unit omitted.

Given the compound `CCC(C)(C)c1ccc(Oc2cccc(C(=O)O)c2)cc1` , what is its reported growth inhibition?
49

Consider next the compound `CN(C)CCCCN1c2ccccc2Sc2ccc(N=[N+]=[N-])cc21` in the same way.
57

Consider next the compound `c1ccc2c(c1)sc1c3cnccc3ccc21` in the same way.
-2

Consider next the compound `Cc1cc(C)nc(NS(=O)(=O)c2ccc(Nc3c4ccccc4nc4c(C(=O)NCCO)cccc34)cc2)n1` in the same way.
7

Consider next the compound COc1ccc(C(NCCNC(c2ccc(OC)c(OC)c2)c2cc3c(cc2O)OCO3)c2cc3c(cc2O)OCO3)cc1OC (configuration not stated) in the same way.
75

Consider next the compound `CC[N+](CC)(CC)c1ccccc1` in the same way.
3

Consider next the compound `O=c1[nH]c2ccc(Cl)cc2o1` in the same way.
-38

Consider next the compound COC(=O)CC1CCc2c(ccc3ccccc23)C1(C)C(=O)OC (configuration not stated) in the same way.
-3

Consider next the compound `C/C=C/SC(=Nc1ccccc1)Nc1ccccc1` in the same way.
-9

Consider next the compound `COc1ccc(N=CN(C)C)c(C)c1` in the same way.
89

Consider next the compound `Clc1ccc(NCNC2Nc3ccccc3N2)cc1Cl` in the same way.
96

Consider next the compound `CC12C(=O)OC(=O)C(c3ccccc31)c1ccccc12` in the same way.
0

* * *

assay: NCI Yeast Anticancer Drug Screen. Data for the bub3 strain (AID 167); conditions: S. cerevisiae bub3 mutant strain, at 50.0 µM (retest, dose inferred, filed as 5.0), hits give high values
This is part of a sample that, as a whole, favours compounds with a hit. Of some 79,000 tested, about 15% had one in any assay.
Lab note: compare growth inhibition against 80%. Equal or greater, write Condition met. Smaller, write Condition not met.

growth inhibition >= 80% for `CCC(C)(C)c1ccc(Oc2cccc(C(=O)O)c2)cc1` ?
Condition not met

Consider next the compound `Oc1ccc2ccccc2c1CCc1c(O)ccc2ccccc12` in the same way.
Condition met

Consider next the compound `CCCCCOC(=S)SC(=O)OCC` in the same way.
Condition met

Consider next the compound `CC(C)(C)N=C(NO)c1ccccc1` in the same way.
Condition not met

Consider next the compound `COc1oc(C(=O)NC2CCCCC2)c(-c2ccc(Cl)cc2)c1S(=O)(=O)c1ccccc1` in the same way.
Condition met

Consider next the compound `CCOc1ccccc1N=Cc1c2ccccc2cc2ccccc12` in the same way.
Condition met

Consider next the compound COc1ccc(NC(=O)CC2SC(=Nc3ccccc3C)NC2=O)c([N+](=O)[O-])c1 (configuration not stated) in the same way.
Condition not met

Consider next the compound `CCOC1=C/C(=N\Nc2ccc([N+](=O)[O-])cc2)CCC1` in the same way.
Condition not met

Consider next the compound `Cc1cc(=O)oc2c(C)c3occc(=O)c3cc12` in the same way.
Condition not met

Consider next the compound N#CC1=C(N)N(/N=C/c2ccccc2)C(c2ccccc2)C1(C#N)C#N (configuration not stated) in the same way.
Condition met

Consider next the compound `CCN(CC)CCN(C)CCc1ccc(Br)cc1` in the same way.
Condition not met

* * *

assay: NCI Yeast Anticancer Drug Screen. Data for the CLN2oe strain (AID 163);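 also: 0% = growth of vehicle-only control cultures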; conditions: S. cerevisiae CLN2oe strain, at 3.7 µM, hits give high values
Compounds without any hit were thinned out: in the full panel of roughly 79,000, 15% have a hit. Active and inactive are the calls of the source. No stated cut-off is given here; in the data, active means growth inhibition above about 70%; inactive means the rest.
I'd be grateful if you could share measured growth inhibition for these entries.

Given the compound `NC(N)=NS(=O)(=O)c1ccc(Nc2c3ccccc3nc3c(C(=O)NCCO)cccc23)cc1` , what is its reported growth inhibition?
0% (inactive)

Consider next the compound `NC1CCCCC1N.Nc1c(N=Nc2ccc(-c3ccc(N=Nc4cc(S(=O)(=O)[O-])c5ccccc5c4N)cc3)cc2)cc(S(=O)(=O)[O-])c2ccccc12.[OH3+].[OH3+].[Pt+4]` in the same way.
-1% (inactive)

Consider next the compound COc1cc(C2SCC(=O)N2c2ccc(-c3ccc(-n4c(-c5ccccc5)nc5ccccc5c4=O)cc3)cc2)ccc1O (stereo not given) in the same way.
-2% (inactive)

Consider next the compound `CCc1cc(O)c(Cl)c(C)c1Cl` in the same way.
-21% (inactive)

Consider next the compound `CNCCCNc1c2ccccc2nc2cccc([N+](=O)[O-])c12` in the same way.
28% (inactive)
